- Tested System: full-length human PHD2 (Homo sapiens)
- Construct: The PHD2 construct contained amino acids 1 to 426 of PHD2; His tag (N, cleaved yes); TEV protease cleavage site (N, cleaved yes)
- Sequence (Q9GZT9 whole entry, the tested form may be a part): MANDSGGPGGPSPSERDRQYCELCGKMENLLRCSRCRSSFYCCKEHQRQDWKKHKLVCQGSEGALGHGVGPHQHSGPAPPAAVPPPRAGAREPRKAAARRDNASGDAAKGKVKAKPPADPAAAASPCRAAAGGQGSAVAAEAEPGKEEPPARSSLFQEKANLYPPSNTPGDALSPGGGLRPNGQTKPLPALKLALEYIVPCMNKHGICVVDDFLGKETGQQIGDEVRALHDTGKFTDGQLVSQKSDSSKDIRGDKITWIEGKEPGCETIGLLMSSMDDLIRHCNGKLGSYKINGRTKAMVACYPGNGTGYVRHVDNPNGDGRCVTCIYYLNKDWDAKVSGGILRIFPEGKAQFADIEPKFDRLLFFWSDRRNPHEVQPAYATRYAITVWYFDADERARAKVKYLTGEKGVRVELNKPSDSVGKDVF
- Procedure Text: TR-FRET assay for PHD enzymes, PHD2
- Measurement Parameters: read-out: PHD2 IC5 0
Reported IC50 values for a set of compounds

Look over these answered cases.
>  <Compound>
Cc1nn(-c2ccc(C(=O)O)cn2)c(O)c1-c1ccc(Cl)cc1F [Compound 28]

>  <Tested System>
full-length human PHD2 (Homo sapiens)

>  <Measured>
100 to 1000 nM

$$$$
>  <Compound>
Cc1cc(C#N)cc(C)c1-c1cnn(-c2ccc(C(=O)O)cn2)c1O [Compound 31]

>  <Tested System>
full-length human PHD2 (Homo sapiens)

>  <Measured>
100 to 1000 nM

$$$$
>  <Compound>
Cc1nn(-c2ccc(C(=O)O)cn2)c(O)c1-c1cc[n+]([O-])cc1 [Compound 41]

>  <Tested System>
full-length human PHD2 (Homo sapiens)

>  <Measured>
≥ 10000 nM

$$$$
>  <Compound>
O=C(O)c1ccc(-n2ncc(-c3ccc(Cl)cc3O)c2O)nc1 [Compound 39]

>  <Tested System>
full-length human PHD2 (Homo sapiens)

>  <Measured>
< 100 nM

$$$$

q: Give reported IC50 for Cc1nn(-c2cc(N)c(C(=O)O)cn2)c(O)c1-c1ccc(C#N)cc1 [Compound 27] (full-length human PHD2 (Homo sapiens))
a: < 100 nM
